# Study Target: T1, His-tagged huCB1-ND (human CB1 in nanodisc) (human)
# T1 construct: CB1 construct of Cell 167(3) (2016) 750-762 expressed in Sf9 cells; POPC:MSP1D1:CB1 480:8:1; also called CB1-nanodisc; huCB1-Nanodisc; not shown: histidine purification tag
# T1 sequence (P21554 99-414): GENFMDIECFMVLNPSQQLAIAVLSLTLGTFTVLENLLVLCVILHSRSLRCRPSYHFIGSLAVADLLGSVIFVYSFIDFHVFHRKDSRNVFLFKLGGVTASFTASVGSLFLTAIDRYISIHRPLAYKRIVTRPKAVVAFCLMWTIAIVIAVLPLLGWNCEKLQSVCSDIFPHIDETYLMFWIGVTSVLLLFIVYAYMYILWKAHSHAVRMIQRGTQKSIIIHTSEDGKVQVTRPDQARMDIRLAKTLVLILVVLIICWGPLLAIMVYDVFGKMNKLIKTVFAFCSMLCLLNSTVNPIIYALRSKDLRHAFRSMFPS
# Experiment: flow cytometry, yeast-displayed IgG, binding/display ratio
Property Name: relative binding to 0.2 nM huCB1-ND (relative to 10D10N35Y) (fold)

1. LIBC523969-1 (antibody, V domains shown) VH: QVQLQESGPGLVKPSQTLSLTCTVSGGSIRRGGDYWSWIRQHPGKGLEWIGHIYQTGQTKYNPNLKGRATISVNTYKNQFSLKLSSVTAADTAVYYCARDYDILTGYSYYYYGMDVWGQGTTVTVSS VL: DIVMTQSPLSLPVTPGEPASISCRSSQSLLSSTGANYLDWYLQKPGQSPQLLIYQGSNRASGVPDRFSGSGSGTDFTLKISRVEAEDVGVYYCRQAVGLPRTFGQGTKVEIKR
4.53
2. LIBC523862-1 (antibody, V domains shown) VH: QVQLQESGPGLVKPSQTLSLTCTVSGGSIRRGGDYWSWIRQHPGKGLEWIGHIYQTGSTAYNPSLKGRATISVNTYKNQFSLKLSSVTAADTAVYYCARDYDILTGYSYYYYGMDVWGQGTTVTVSS VL: DIVMTQSPLSLPVTPGEPASISCRSSQSLLHSTGANYVDWYLQKPGQSPQLLIYLGSNRASGVPDRFSGSGSGTDFTLKISRVEAEDVGVYYCRQAIALPRTFGQGTKVEIKR
5.07
3. LIBC523815-1 (antibody, V domains shown) VH: QVQLQESGPGLVKPSQTLSLTCTVSGGSIRRGGDYWSWIRQHPGKGLEWIGHIYQSGQTKYNPSLKDRATISVNTYKNQFSLKLSSVTAADTAVYYCARDYDILTGYSYYYYGMDVWGQGTTVTVSS VL: DIVMTQSPLSLPVTPGEPASISCRSSQSLLTSSGANYVDWYLQKPGQSPQLLIYLGSNRASGVPDRFSGSGSGTDFTLKISRVEAEDVGVYYCRQAREQPRTFGQGTKVEIKR
6.15
